Would you mind telling me the reported IC50 of each entry?
test system: MGC-803; assay: Antiproliferative activity against human MGC-803 cells; type: functional, cell-based
A number alone suffices; assume µM.

## Task // query IC50 value for entry `COc1ccc2c(C(=O)Nc3ccc(Br)cc3)cc(-c3ccccc3)nc2c1`
## Result 15.5

## Task // repeat for `O=C(Cc1cnc2ccccn12)Nc1ccc2c(c1)S(=O)(=O)C=C2` and report
## Result 22.5

## Task // repeat for `O=C(Cc1c(-c2ccccc2)nc2cc(Br)ccn12)Nc1ccc2c(c1)S(=O)(=O)C=C2` and report
## Result 0.9

## Task // repeat for `COc1ccc2c(C(=O)Nc3ccc(-c4cccnc4)cc3)cc(-c3ccccc3)nc2c1` and report
## Result 64.8

## Task // repeat for `Cn1cc(-c2ccn3c(CC(=O)Nc4ccc5c(c4)S(=O)(=O)C=C5)c(-c4ccccc4)nc3c2)cn1` and report
## Result 0.7

## Task // repeat for `COc1ccc2c(C(=O)Nc3ccc(-c4ccccc4)cc3)cc(-c3ccccc3)nc2c1` and report
## Result 2.6

## Task // repeat for `COc1ccc2c(C(=O)Nc3ccc(-c4cccs4)cc3)cc(-c3ccccc3)nc2c1` and report
## Result 15

## Task // repeat for `O=C(Cc1c(-c2ccc([N+](=O)[O-])cc2)nc2ccccn12)Nc1ccc2c(c1)S(=O)(=O)C=C2` and report
## Result 5.2

## Task // repeat for `COc1ccn2c(CC(=O)Nc3ccc4c(c3)S(=O)(=O)C=C4)c(-c3ccc(S(C)(=O)=O)cc3)nc2c1` and report
## Result 6.4

## Task // repeat for `COc1ccc(-c2ccn3c(CC(=O)Nc4ccc5c(c4)S(=O)(=O)C=C5)c(-c4ccccc4)nc3c2)cc1` and report
## Result 0.5

## Task // repeat for `CN(CC(=O)N(Cc1ccc(C2CCCCC2)cc1)c1ccc(C(=O)O)c(O)c1)S(=O)(=O)c1c(F)c(F)c(F)c(F)c1F` and report
## Result 5.6

## Task // repeat for `O=C(Cc1c(-c2ccccc2)nc2ccccn12)Nc1ccc2c(c1)S(=O)(=O)C=C2` and report
## Result 1.6
